target.of.assay: rHSP90
assay.details: HSP90 binding assay (BIACORE SPR; inhibition of binding between rHSP90 and fixed herbimycin A)
measurement.setup: concentration inhibiting binding between rHSP90 (50 μg/mL) and fixed herbimycin A by 50%, BIACORE-X SPR; read-out: HSP90 inhibitory activity IC50
pIC50: −log10 of the molar value. Structures can show the parent of a compound that is named as a salt.
quantity.measured: pIC50

{"compound": "CC(C)c1cc(-c2n[nH]c(=O)n2-c2ccc(C(=O)O)cc2)c(O)cc1O", "observed.value": 6.72}
{"compound": "CC(C)c1cc(-c2n[nH]c(=O)n2-c2ccc(O)cc2)c(O)cc1O", "observed.value": 6.66}
{"compound": "CC(C)c1cc(-c2nnc(S(C)(=O)=O)n2-c2ccc(C[N+]3([O-])CCOCC3)cc2)c(O)cc1O", "observed.value": 6.49}
{"compound": "CC(C)c1cc(-c2n[nH]c(=O)n2CCCN2CCCC2=O)c(O)cc1O", "observed.value": 6.85}
{"compound": "CC(C)c1cc(-c2n[nH]c(=O)n2-c2cnc(N3CCOCC3)nc2)c(O)cc1O", "observed.value": 6.66}
{"compound": "CC(C)c1cc(-c2n[nH]c(=S)n2C2CCN(Cc3ccccc3)CC2)c(O)cc1O [SH-a25•TFA]", "observed.value": 6.00}
{"compound": "CC(C)c1cc(-c2nnc(S(C)(=O)=O)n2C(CO)CO)c(O)cc1O", "observed.value": 5.89}
{"compound": "CC(C)Cn1c(-c2cc(C(C)C)c(O)cc2O)n[nH]c1=S", "observed.value": 6.57}
{"compound": "CC(C)c1cc(-c2n[nH]c(=O)n2C(CO)CO)c(O)cc1O", "observed.value": 6.43}
{"compound": "COc1ccc(OC)c(-n2c(S)nnc2-c2ccc(O)cc2O)c1 [SH-b06, reference compound]", "observed.value": 6.16}
{"compound": "Oc1ccc(-c2nnc(S)n2-c2ccccc2)c(O)c1 [SH-b04, reference compound]", "observed.value": 6.77}
{"compound": "COc1ccc(-n2c(-c3cc(C(C)C)c(O)cc3O)nnc2S(C)(=O)=O)cc1", "observed.value": 7.03}
{"compound": "COc1ccc(-n2c(-c3cc(C(C)C)c(O)cc3O)nnc2S(=O)(=O)CC2CCCCO2)cc1 (stereo not drawn)", "observed.value": 6.14}
{"compound": "COCCn1c(-c2cc(C(C)C)c(O)cc2O)nnc1S(C)(=O)=O", "observed.value": 5.72}
{"compound": "CC(C)c1cc(-c2n[nH]c(=O)n2-c2ccc(C(=O)N3CCOCC3)cc2)c(O)cc1O", "observed.value": 6.72}
{"compound": "CC(C)c1cc(-c2nnc(S(=O)(=O)CCCN(C)C)n2C(C)C)c(O)cc1O [SFN2-a21•TFA]", "observed.value": 6.00}
{"compound": "COCCn1c(-c2cc(C(C)C)c(O)cc2O)n[nH]c1=S", "observed.value": 6.62}
{"compound": "CC(C)c1cc(-c2n[nH]c(=S)n2-c2ccc(N3CCOCC3)cc2)c(O)cc1O [SH-a01]", "observed.value": 6.85}

---

target.of.assay: rHSP90
assay.details: HSP90 binding assay (BIACORE SPR; inhibition of binding between rHSP90 and fixed herbimycin A)
measurement.setup: concentration inhibiting binding between rHSP90 (50 μg/mL) and fixed herbimycin A by 50%, BIACORE-X SPR; read-out: HSP90 inhibitory activity IC50
pIC50: −log10 of the molar value.

{"line.notation": "COc1ccc(-n2c(-c3cc(C(C)C)c(O)cc3O)n[nH]c2=S)cc1", "pIC50": 7.07}
{"line.notation": "CC(C)c1cc(-c2n[nH]c(=S)n2CCc2cccnc2)c(O)cc1O", "pIC50": 6.37}
{"line.notation": "CC(C)c1cc(-c2nnc(S(C)(=O)=O)n2CCc2ccc[n+]([O-])c2)c(O)cc1O", "pIC50": 5.44}
{"line.notation": "CC(C)c1cc(-c2n[nH]c(=S)n2-c2ccc(CN3CCOCC3)cc2)c(O)cc1O", "pIC50": 6.62}
{"line.notation": "CC(C)c1cc(-c2n[nH]c(=O)n2-c2ccc(CN3CCOCC3)cc2)c(O)cc1O", "pIC50": 6.74}

---

System: Human breast cancer cells (MCF7)
assay.details: Antiproliferative activity on MCF7 cells (methylene blue method)
Type: cell-based
measurement.setup: Homo sapiens, MCF7, 72 h, read-out: Antiproliferative activity IC50
quantity.measured: IC50 (nM)

{"compound": "CO[C@H]1[C@@H](OC)C[C@H](C)[C@@H](OC)C2=CC(=O)C=C(NC(=O)/C(C)=C/C=C\\[C@H](OC)[C@@H](OC(N)=O)/C(C)=C/[C@@H]1C)C2=O [herbimycin, reference compound]", "target.of.assay": "Human breast cancer cells (MCF7)", "observed.value": 160}
